# measurement_description: Log P (octanol/water partition coefficient)
# Assay type: physicochemical
Property: logP; scope: individual compounds
Just the number, please, no unit after it.

record_smiles | logP
COc1cc(C2C3=C(CC(C)(C)CC3=O)N(CCc3ccccc3)C3=C2C(=O)CC(C)(C)C3)ccc1O | 3.74
CCCCCCCN1C2=C(C(=O)CC(C)(C)C2)C(c2ccc(O)c(OC)c2)C2=C1CC(C)(C)CC2=O | 4.22
CCCCCCCCCCN1C2=C(C(=O)CC(C)(C)C2)C(c2ccc(O)c(O)c2)C2=C1CC(C)(C)CC2=O | 5.21
CCCCCN1C2=C(C(=O)CC(C)(C)C2)C(c2ccc(O)c(OC)c2)C2=C1CC(C)(C)CC2=O | 3.38

Turning now to a further compound:
Query :: # input compound: "COc1cc(C2C3=C(CC(C)(C)CC3=O)NC3=C2C(=O)CC(C)(C)C3)ccc1O" ; wanted: its logP
Result :: 1.49

---

The molecules listed here are annotated with their μg sample per 1 μg of Trolox.
# measurement_description: Test to study anti-oxidizing capability using chemiluminescence (Photochem Analytic Jena)
# Type: biochemical
# condition_description: quantity of sample needed for activity equivalent to 1 μg Trolox, superoxide anion trapping

Look over these answered cases.
molecule | μg sample per 1 μg of Trolox
CCCCCCCCCCCCN1C2=C(C(=O)CC(C(C)C)C2)C(c2ccc(O)c(OC)c2)C2=C1CC(C(C)C)CC2=O (stereo not shown) | 1.57 μg sample per 1 μg of Trolox
CN1C2=C(C(=O)CC(C)(C)C2)C(c2ccc(O)c(O)c2)C2=C1CC(C)(C)CC2=O | 0.017 μg sample per 1 μg of Trolox
CN1C2=C(C(=O)CC(c3ccccc3)C2)C(c2ccc(O)c(O)c2)C2=C1CC(c1ccccc1)CC2=O (stereo not shown) | 0.05 μg sample per 1 μg of Trolox
CCCCCCCCCCCCN1C2=C(C(=O)CC(C)(C)C2)C(c2ccc(O)c(OC)c2)C2=C1CC(C)(C)CC2=O | 2.45 μg sample per 1 μg of Trolox
CCCCCCCCCCN1C2=C(C(=O)CC(c3ccccc3)C2)C(c2ccc(O)c(O)c2)C2=C1CC(c1ccccc1)CC2=O (stereo not shown) | 0.04 μg sample per 1 μg of Trolox
CCCCCCCCCCN1C2=C(C(=O)CC(C)(C)C2)C(c2cc(OC)c(O)c(OC)c2)C2=C1CC(C)(C)CC2=O | 0.81 μg sample per 1 μg of Trolox

Here is another molecule to look at.
Query :: Query: μg sample per 1 μg of Trolox; subject: "CCCCCCCCCCN1C2=C(C(=O)CC(C)(C)C2)C(c2ccc(O)c(O)c2)C2=C1CC(C)(C)CC2=O"
Result :: 0.015 μg sample per 1 μg of Trolox

---

// boundary case: melting point equal to 200 °C maps to NOT MET; strictly smaller maps to MET

// below: answered molecules
record_smiles | classification
CCCN1C2=C(C(=O)CC(C)(C)C2)C(c2ccc(O)c(OC)c2)C2=C1CC(C)(C)CC2=O | NOT MET
CCCCCCCCCN1C2=C(C(=O)CC(C)(C)C2)C(c2ccc(O)c(OC)c2)C2=C1CC(C)(C)CC2=O | MET
CCCCCCCCN1C2=C(C(=O)CC(C)(C)C2)C(c2ccc(O)c(OC)c2)C2=C1CC(C)(C)CC2=O | MET

Query :: In plain terms, does "CCCCCCN1C2=C(C(=O)CC(C)(C)C2)C(c2ccc(O)c(OC)c2)C2=C1CC(C)(C)CC2=O" come in under 200 °C for melting point?
Result :: MET

Query :: Could you do the same for "COc1cc(C2C3=C(CC(C)(C)CC3=O)NC3=C2C(=O)CC(C)(C)C3)ccc1O" , please?
Result :: NOT MET

Query :: Note, next up: "CCCCCCCCCCCN1C2=C(C(=O)CC(C)(C)C2)C(c2ccc(O)c(OC)c2)C2=C1CC(C)(C)CC2=O"
Result :: MET

Query :: Cool, now "CCCCCCCN1C2=C(C(=O)CC(C)(C)C2)C(c2ccc(O)c(OC)c2)C2=C1CC(C)(C)CC2=O"
Result :: MET
